src = the supplement of paper PMC10065799

# systemUnderTest: SHP2-C SH2;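 note: peptide library displayed on the E. coli surface as eCPX fusions, selected cells deep-sequenced, score is each peptide's frequency after selection divided by its frequency in the input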
# protocolText: SH2 binding enrichment of the phosphorylated peptide, bacterial display (enrichment ratio); higher = better substrate or ligand; peptides without Tyr show the background
measureName: SH2 binding enrichment

Reference set (10 entries):
REVVNYVQKRN [RMI1_Y450] = 0.787
NGEDLYAGSTD [XRCC1_Y515_P514L] = 0.555
SWVVPYEPPEV [TP53_Y220_V216W] = 0.639
RRIHSYRGHLC [VHL_Y112_W117C] = 0.478
KSPDSYQKILL [ATM_Y1415] = 0.631
QWRTKYEMDAI [MYH7_Y1375_T1377M] = 0.522
LSGFGYRLSDQ [PDCD6_Y124] = 1.65
QRALLYEDALF [UNC13D_Y56_YF] = 0.573
YETDYYQKGGK [INSR_Y1190_R1191Q] = 1.16
WSFNLYDINKD [KCNIP3_Y174_A170S] = 0.676

P: VHVEVYDRPSP
Q: PSQRRYLYYYS [PTEN_Y174_V175L]
R: LENSTYQYIRV [CRB1_Y760]
Rank descending by SH2 binding enrichment. Use the labels to give the requested order. R, Q, P
(R: 8.46, Q: 1.48, P: 0.777)

====

# System: AncSZ
# protocolText: phosphorylation enrichment, bacterial display (enrichment ratio); higher = better substrate or ligand; peptides without Tyr show the background
phosphorylation enrichment for assorted sequences
The reply should be a number, written without any unit.

EMFNPYYGLFE [NEDD4L_Y679] = 2.04

Please examine the following record next.
Value lookup for phosphorylation enrichment; key = GIMEEYQLPFF [BMPR1A_Y453_V450M_YF] 4.83

====

phosphorylation enrichment for assorted sequences
# systemUnderTest: Fes (UniProt P07332)
# Sequence (P07332 whole entry, looked up): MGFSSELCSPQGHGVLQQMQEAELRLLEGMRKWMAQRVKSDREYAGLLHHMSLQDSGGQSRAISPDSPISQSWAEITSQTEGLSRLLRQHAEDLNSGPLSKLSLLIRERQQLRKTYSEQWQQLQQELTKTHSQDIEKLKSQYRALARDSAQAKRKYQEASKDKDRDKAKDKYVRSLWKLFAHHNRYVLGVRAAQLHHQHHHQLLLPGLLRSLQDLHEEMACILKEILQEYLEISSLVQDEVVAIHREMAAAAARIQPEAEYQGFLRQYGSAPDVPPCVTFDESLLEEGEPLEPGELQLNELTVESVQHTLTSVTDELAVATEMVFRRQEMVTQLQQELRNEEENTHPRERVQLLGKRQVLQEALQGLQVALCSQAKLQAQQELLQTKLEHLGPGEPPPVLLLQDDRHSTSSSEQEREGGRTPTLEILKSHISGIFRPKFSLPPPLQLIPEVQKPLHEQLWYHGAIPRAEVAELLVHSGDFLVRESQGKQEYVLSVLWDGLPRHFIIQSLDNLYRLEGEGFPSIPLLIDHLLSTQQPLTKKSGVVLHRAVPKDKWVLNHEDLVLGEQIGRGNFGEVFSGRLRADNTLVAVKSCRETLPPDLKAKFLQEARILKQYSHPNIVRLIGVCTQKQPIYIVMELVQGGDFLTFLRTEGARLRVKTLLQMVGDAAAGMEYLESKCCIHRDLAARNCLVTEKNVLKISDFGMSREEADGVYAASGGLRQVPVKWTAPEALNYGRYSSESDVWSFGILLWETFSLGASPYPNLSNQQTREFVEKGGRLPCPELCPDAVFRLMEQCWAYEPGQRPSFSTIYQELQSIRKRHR
# protocolText: phosphorylation enrichment, bacterial display (enrichment ratio); higher = better substrate or ligand; peptides without Tyr show the background
The reply should be a number, written without any unit.

Reference set (5 entries):
ALECLYRREKR [TEKT5_Y195_H196R] = 1.85
GGPAGYLRRAS [PKLR_Y38] = 0.678
IHADIYRWFNI [MARS1_Y344] = 1.42
EIIPFYGMSTF [FNDC3B_Y175_YF] = 0.911
HQNGMYGLHQD [SGSH_Y89] = 0.886

Value lookup for phosphorylation enrichment; key = EKQARYEIVVE [CDH5_Y223] 0.852

Value lookup for phosphorylation enrichment; key = RLQEDYDHSYY [ESD_Y258_G257D] 1.55

Value lookup for phosphorylation enrichment; key = KIEGVYARDET [RPL35A_Y34] 0.878

Value lookup for phosphorylation enrichment; key = LGGSPYPGVPV [FGFR1_Y701] 0.881

Value lookup for phosphorylation enrichment; key = CTTIHYNYMCD [TP53_Y234_N239D] 0.898

Value lookup for phosphorylation enrichment; key = PLLEFYWDIFT [CDAN1_Y713_R714W_YF] 1.2

Value lookup for phosphorylation enrichment; key = GEVKAYGAGLL [TH_Y419] 0.503

Value lookup for phosphorylation enrichment; key = LAVNPYGPPDL 1.23

Value lookup for phosphorylation enrichment; key = FLAVGYHKPFI [IDS_Y225_H229Y_YF] 0.8

Value lookup for phosphorylation enrichment; key = LSGVIYVILGK [PMP22_Y153_R157G] 2.88

Value lookup for phosphorylation enrichment; key = KHMADYPDYKY [SOX11_Y113] 0.616

Value lookup for phosphorylation enrichment; key = SVCPDYDLCSV [SQSTM1_Y148] 1.3

Value lookup for phosphorylation enrichment; key = VSTAVYKRFAS [BEST1_Y148_P152A] 0.77

Value lookup for phosphorylation enrichment; key = RRMLQYLTVND [PPFIBP2_Y663] 0.862

Value lookup for phosphorylation enrichment; key = STASGYSDVTD [DTX2_Y425] 0.84

Value lookup for phosphorylation enrichment; key = PLEGEYFTLQI [TP53_Y327_D324E] 3

Value lookup for phosphorylation enrichment; key = ISISPYPAILH [IFT80_Y588_T586S] 0.961

Value lookup for phosphorylation enrichment; key = KFLVGYEMLAQ [GALT_Y339_M336L] 0.977
